System: VchCAST RNA-guided transposition machinery (E. coli BL21(DE3) host, lacZ target)
Test: relative integration efficiency (T-RL orientation) vs wild-type transposon end (log2 (normalized fold change)); transposon end mutated: left end; higher = more efficient transposition
Note to self: class labels come from recorded relative integration efficiency (log2), ranges listed here: group 1 = under -4, group 2 = from -4 up to -2, group 3 = -2 and over

macromoleculeSequence	answerLabel
AATGTTGTTGATGCAACCATAAAGTGATATTATAATTATTTATAATCAGCAACTTAACCACAAAACAACCATATATTGATATCTCACAAAACAACCATAAGTTGATATTTTTGTGAATCGAGTATTTCAGCAAAACTACTGCAGTAAGAAAG	group 1
AATGTTGTTGATGCAACCATAAAGTGATATTTAAGAATTATGTCGTTCTAAACAAGAGATATTAGAACAACCATATATTGATATCTCACAAAACAACCATAAGTTGATATTTTTGTGAATCGAGTATTTCAGCAAAACTACTGCAGTAAGAA	group 1
AATGTTGTTGATGCACCCATAAATTGATAATTAATAATTATTTATAATCAGCAACTTAACCACAAAACAACCATAAGTTGATATTTTACAAAAGTTGGTATTCAACTATAAAATGTGAATCGAGTATTTCAGCAAAACTACTGCAGTAAGAA	group 2

Hello team, could you let me know which band the following sequence falls into: `AATGTTGTTGATGCAACCATAAAGTGATATTTACAACCATATATTGATATCTCTCACAACCATAAGTTGATATTTCTCTGATCATAGTCAGACCAACATTGCTACGACCCGTATTCGCACCGACACTGTGAATCGAGTATTTCAGCAAAACT` group 2

// next record `AATGTTGTTGATGCAACCATAAAGTGATATTTAATAATTATTTATAATCAGCAACTTAACCACAAAACAACCATATATTGATATCTCACAAAACAACCATAAGGGTCGCGGGGGTGTCCGATCTGATTTCAGCAAAACTACTGCAGTAAGAA` group 3

Try this sequence next: `AATGTTGTTGATGCAACCATAAAGTGATATTTAATAATTATTTATAATCAGCAACTTAACCACAAAACAACCATATATTGATATCTCACAAACACCAACGCCTGGTCGCGGGGGTGTCCGATCTGATTTCAGCAAAACTACTGCAGTAAGAA` group 2

Follow-up item: `AATGTTGTTGAAACAACCATAAAGTGATAACAACGAATCAATTAAAATCATAGGCTTAATCGAAAAACAACCATATCTTGATATCGCATAAAACAACCATAAGTTGATATTTTGGTGAAAAGGATATTCCAACCTTCATAGTTTAGTAAGAA` group 3

====

Consider the following sequences and their measured relative integration efficiency (log2) readings.
Tested on: VchCAST RNA-guided transposition machinery (E. coli BL21(DE3) host, lacZ target)
Assay: relative integration efficiency (T-RL orientation) vs wild-type transposon end (log2 (normalized fold change)); transposon end mutated: right end (5 bp flank + 75 bp right end); higher = more efficient transposition
Could you respond with only the numeric value?

Fill in the blank: the reported relative integration efficiency (log2) of `ACATTTCTGGATACAACCATAAAATGATAATTACACCCATAAATGGATCATTATCACACCCAATTTAACTATAACGCTCTGATCATAGTCAGACCAACATTGCTACGACCCGTATTCGCACCGACAC` is ____. -3.09

Follow-up item: `ACATTAGTTGATACAACCATAAAATGATAATTACACCCATAAATTGATCATTATCACACCCAATTTAACTATAACGCTCTGATCATAGTCAGACCAACATTGCTACGACCCGTATTCGCACCGACAC` -7.38

And `ACATTTGTTGATACAACCATAAAATGATAATTACACCCATAAATTGATAATTATCACACCCATAAATTGATATTGCCTCTGTTGGCGCCCGGCCCTCAGGCCCTGCAGTGAGTTCCAGCACCGACAC` ? 0.121

Now consider `ACATTTGTTGATACAACCATTAAATGATAATTCCACCCATATATTGATAATTATCACACCCAATTTAACTATAACGCTCTGATCATAGTCAGACCAACATTGCTACGACCCGTATTCGCACCGACAC` . -1.24

Same question for `ACATTTGTTGATACAACCATAAAATGATAAATACACCCATAAATTGATAATAATGACACCGAATTTAACTATAACGCTCTGATCATAGTCAGACCAACATTGCTACGACCCGTATTCGCACCGACAC` please. -1.36

Next entry: `ACATTTGTTGATACACCCATAAATTGATATTGCCAACCATAAAGTGATATTTATCACACCCATAAATTGATATTGCCTCTGATCATAGTCAGACCAACATTGCTACGACCCGTATTCGCACCGACAC` -0.74

Try this sequence next: `ACATTTGTTGATACAACCATAAAATGATCATTACCCCCATCAATTGATAATTATCACACCCCATTTAACTATAACGCTCTGATCATAGTCAGACCAACATTGCTACGACCCGTATTCGCACCGACAC` -3.74

Moving on to `ACATTTGTTGATACAACCATAAAATCATCATTACACCCATAAATTGATAATTATCACACCCCATTTAACTATAACGCTCTGATCATAGTCAGACCAACATTGCTACGACCCGTATTCGCACCGACAC` -3.39

# repeat for `ACATTTGTTGATACACCCATAAATTGATATTGCCACCCATAAATTGATATTGCTCACACCCATAAATTGATAATTACTCTGATCATAGTCAGACCAACATTGCTACGACCCGTATTCGCACCGACAC` -1.21

Now consider `ACATTTGTTGATACAACCATAAAATGATAATTACACCCATAAATTTCTAATTATCACACCCATAAATTGATATTGCCTCTGATCATAGTCAGACCAACATTGCTACGACCCGTATTCGCACCGACAC` . -0.945
